// values below are reported Activity
- Protocol details: Antioxidant activity assessed as reduction in mouse CRL2181 cells-mediated human LDL oxidation by measuring TBARS level at 10 uM after 18 hrs
- Type: physicochemical, cell-based
- Parameters: scale not given: the % may be the effect or the level left

Compound	Activity (%)
O=C(N/N=C/c1ccccc1O)OCc1ccccc1	104
COc1cc(/C=N/NC(=O)c2ccncc2)cc(O)c1O	8
COc1cc(/C=N/NC(=O)c2ccncc2)cc(OC)c1O	7
COc1cc(/C=N/Nc2nncc3ccccc23)cc(OC)c1OC.Cl	93
COc1cc(/C=N/Nc2nncc3ccccc23)ccc1O.Cl	4
COc1cc(/C=N/NC(=O)c2ccncc2)c(O)cc1O	82
COc1cc(/C=N/NC(=O)OCc2ccccc2)ccc1O	36
COc1cc(/C=N/Nc2nc3ccccc3s2)ccc1O	7
COc1cc(/C=N/NC(=O)c2ccncc2)ccc1O [FTIVAZIDE]	95
COc1cc(/C=N/N2C(=O)CSC2=S)cc(OC)c1O	5
Cl.Oc1ccc(/C=N/Nc2nncc3ccccc23)cc1O	3
COc1cc(/C=N/N(C)c2nc3ccccc3s2)ccc1O	9
O=C(N/N=C/c1ccc(O)c(O)c1)c1ccncc1	4
COc1cc(/C=N/Nc2nc3ccccc3s2)cc(O)c1O	7
COc1cc(/C=N/Nc2nncc3ccccc23)cc(O)c1O.Cl	3
COc1cc(/C=N/NC(=O)OCc2ccccc2)c(O)cc1O	6
Cc1c(C)c2c(c(C)c1O)CC[C@@](C)(CCC[C@H](C)CCC[C@H](C)CCCC(C)C)O2	55
COc1cc(/C=N/Nc2nc3ccccc3s2)cc(OC)c1O	3
Oc1ccc(/C=N/Nc2nc3ccccc3s2)cc1O	7
O=C(N/N=C/c1ccccc1O)c1ccncc1	31
COc1cc(/C=N/Nc2nncc3ccccc23)cc(OC)c1O	4
O=C1CSC(=S)N1/N=C/c1ccccc1O	5
COc1cc(/C=N/N(C)C(=O)OCc2ccccc2)ccc1O.Cl	5
COc1cc(/C=N/N2C(=O)CSC2=S)ccc1O	5
COc1cc(/C=N/N(C)C(=O)OCc2ccccc2)cc(OC)c1OC.Cl	90
COc1cc(/C=N/N(C)C(=O)OCc2ccccc2)cc(OC)c1O.Cl	5
Cc1c(C)c2c(c(C)c1O)CCC(C)(C(=O)O)O2 (stereo not given)	33
COc1cc(/C=N/NC(=O)OCc2ccccc2)cc(OC)c1O	3
COc1cc(/C=N/NC(=O)OCc2ccccc2)cc(OC)c1OC	100
COc1cc(/C=N/NC(=O)OCc2ccccc2)cc(O)c1O	2
COc1cc(/C=N/Nc2nc3ccccc3s2)cc(OC)c1OC	14
COc1cc(/C=N/NC(=O)c2ccncc2)cc(OC)c1OC	94
COc1cc(/C=N/N(C)c2nc3ccccc3s2)cc(OC)c1O	3
O=C(N/N=C/c1ccc(O)c(O)c1)OCc1ccccc1	6
COc1cc(/C=N/N(C)c2nc3ccccc3s2)cc(OC)c1OC	82
